Tested on: K562
Assay: Cytotoxicity against human K562 cells assessed as cell viability at 10 uM incubated for 48 hrs by sulforhodamine B assay relative to control
Format: functional
Conditions: read-out: Activity
Entries and their viability at 10 µM
property.measured: viability at 10 µM (%)

In [3]: df
Out[3]:
                               entry_smiles  readout_number
0  O=S(=O)(NCCNc1nccc(-c2c(-c3cccc(F)c3)nc3sccn23)n1)c1cccc(F)c1            48.6
1  O=S(=O)(NCCCNc1nccc(-c2c(-c3cccc(F)c3)nc3sccn23)n1)c1ccc(O)cc1            55.1
2  O=S(=O)(NCCNc1nccc(-c2c(-c3cccc(F)c3)nc3sccn23)n1)c1ccccc1            23.9
3  O=C(NCCNc1nccc(-c2c(-c3cccc(F)c3)nc3sccn23)n1)c1ccccc1              44
4  O=S(=O)(NCCNc1nccc(-c2c(-c3cccc(F)c3)nc3sccn23)n1)c1ccc(Cl)cc1            41.3

----------
System: TK-10
Assay: Cytotoxicity against human TK-10 cells assessed as cell viability at 10 uM incubated for 48 hrs by sulforhodamine B assay relative to control
Assay type: functional
Settings: read-out: Activity
property.measured: viability at 10 µM (%)

>>> df
                               entry_smiles  unit_of_measurement  readout_number
0  O=C(NCCNc1nccc(-c2c(-c3cccc(F)c3)nc3sccn23)n1)c1c(F)cccc1F                    %            66.6
1  O=S(=O)(NCCCNc1nccc(-c2c(-c3cccc(F)c3)nc3sccn23)n1)c1cccc(F)c1                    %            72.3
2  O=S(=O)(NCCNc1nccc(-c2c(-c3cccc(F)c3)nc3sccn23)n1)c1cccc2ccccc12                    %             112
3  O=C(NCCCNc1nccc(-c2c(-c3cccc(F)c3)nc3sccn23)n1)c1ccc(F)cc1                    %            95.9
4  Cc1ccc(S(=O)(=O)NCCCNc2nccc(-c3c(-c4cccc(F)c4)nc4sccn34)n2)cc1                    %            99.4
5  O=S(=O)(NCCCNc1nccc(-c2c(-c3cccc(F)c3)nc3sccn23)n1)c1ccc(Cl)cc1                    %              99
6  O=S(=O)(NCCNc1nccc(-c2c(-c3cccc(F)c3)nc3sccn23)n1)c1ccc(Br)cc1                    %            68.8
7  O=S(=O)(NCCCNc1nccc(-c2c(-c3cccc(F)c3)nc3sccn23)n1)c1ccc(Br)cc1                    %            74.8
8  O=S(=O)(NCCNc1nccc(-c2c(-c3cccc(F)c3)nc3sccn23)n1)c1ccc(F)cc1                    %            80.4

----------
Tested on: LOX IMVI
Experiment: Cytotoxicity against human LOX IMVI cells assessed as cell viability at 10 uM incubated for 48 hrs by sulforhodamine B assay relative to control
Assay type: functional
Settings: read-out: Activity
Entries and their viability at 10 µM
property.measured: viability at 10 µM (%)

>>> print(df.to_string())
                                entry_smiles   property_measured  readout_number
 0  O=S(=O)(NCCCNc1nccc(-c2c(-c3cccc(F)c3)nc3sccn23)n1)c1ccc(C(F)(F)F)cc1  viability at 10 µM            86.7
 1  O=S(=O)(NCCCNc1nccc(-c2c(-c3cccc(F)c3)nc3sccn23)n1)c1ccc(F)cc1  viability at 10 µM              56
 2  O=C(NCCNc1nccc(-c2c(-c3cccc(F)c3)nc3sccn23)n1)c1ccc(C(F)(F)F)cc1  viability at 10 µM            64.8
 3  O=C(NCCNc1nccc(-c2c(-c3cccc(F)c3)nc3sccn23)n1)c1c(F)cccc1F  viability at 10 µM            32.4
 4  O=S(=O)(NCCNc1nccc(-c2c(-c3cccc(F)c3)nc3sccn23)n1)c1ccc(F)cc1  viability at 10 µM            42.8
 5  O=S(=O)(NCCCNc1nccc(-c2c(-c3cccc(F)c3)nc3sccn23)n1)c1ccc(Br)cc1  viability at 10 µM            40.2
 6  O=S(=O)(NCCCNc1nccc(-c2c(-c3cccc(F)c3)nc3sccn23)n1)c1ccc(O)cc1  viability at 10 µM            61.2
 7  O=C(NCCCNc1nccc(-c2c(-c3cccc(F)c3)nc3sccn23)n1)C1CCCCC1  viability at 10 µM            57.4
 8  O=S(=O)(NCCCNc1nccc(-c2c(-c3cccc(F)c3)nc3sccn23)n1)c1ccccc1  viability at 10 µM            50.3
 9  O=S(=O)(NCCNc1nccc(-c2c(-c3cccc(F)c3)nc3sccn23)n1)c1ccc(Cl)cc1  viability at 10 µM            43.6
10  O=C(NCCNc1nccc(-c2c(-c3cccc(F)c3)nc3sccn23)n1)c1ccccc1  viability at 10 µM            35.1
11  O=S(=O)(NCCCNc1nccc(-c2c(-c3cccc(F)c3)nc3sccn23)n1)c1cccc(F)c1  viability at 10 µM              39
12  O=S(=O)(NCCCNc1nccc(-c2c(-c3cccc(F)c3)nc3sccn23)n1)c1cccc2ccccc12  viability at 10 µM            20.9
13  O=S(=O)(NCCNc1nccc(-c2c(-c3cccc(F)c3)nc3sccn23)n1)c1ccc(Br)cc1  viability at 10 µM            38.5
14  O=S(=O)(NCCNc1nccc(-c2c(-c3cccc(F)c3)nc3sccn23)n1)c1ccccc1  viability at 10 µM            36.3
15  O=S(=O)(NCCNc1nccc(-c2c(-c3cccc(F)c3)nc3sccn23)n1)c1cccc(F)c1  viability at 10 µM            51.2
16  O=S(=O)(NCCCNc1nccc(-c2c(-c3cccc(F)c3)nc3sccn23)n1)c1ccc(Cl)cc1  viability at 10 µM            60.3
17  Cc1ccc(S(=O)(=O)NCCCNc2nccc(-c3c(-c4cccc(F)c4)nc4sccn34)n2)cc1  viability at 10 µM              38
18  O=C(NCCNc1nccc(-c2c(-c3cccc(F)c3)nc3sccn23)n1)c1ccc(Cl)cc1  viability at 10 µM            43.4
19  O=C(NCCNc1nccc(-c2c(-c3cccc(F)c3)nc3sccn23)n1)C1CCCCC1  viability at 10 µM            65.9
20  O=C(NCCCNc1nccc(-c2c(-c3cccc(F)c3)nc3sccn23)n1)c1ccc(F)cc1  viability at 10 µM            79.5
21  O=S(=O)(NCCNc1nccc(-c2c(-c3cccc(F)c3)nc3sccn23)n1)c1cccc2ccccc12  viability at 10 µM            95.7
22  O=S(=O)(NCCNc1nccc(-c2c(-c3cccc(F)c3)nc3sccn23)n1)c1ccc(C(F)(F)F)cc1  viability at 10 µM            88.9
23  O=C(NCCCNc1nccc(-c2c(-c3cccc(F)c3)nc3sccn23)n1)c1ccc(C(F)(F)F)cc1  viability at 10 µM            82.6
